Every entry's value here was drawn from the supplement of paper PMC11865577.

- Test system: TO-3-N3 (biotin conjugate)
- testSummary: pull-down binding Z-score (relative to library population); higher = stronger binding
- assaySetup: RNA library: Library-2
So basically: pull-down binding Z-score at 0.04 or higher? That is label 1. Lower than 0.04? That is label 0.

Input line: Given GCGCAGCCAGAAACUGGCGGCGC [mismatch-AG] , state whether its pull-down binding Z-score is at least 0.04.
Output line: label 1

Input line: Form field: pull-down binding Z-score at least 0.04? Entry: AUGGCCCCGAUUUCAGCUAU [SHAPE_invivo_SARS-CoV-2_Motif_151]
Output line: label 0

Input line: For this sequence, is measured pull-down binding Z-score 0.04 or higher? CAGAGUGGGCUCACCUCUCGCCCACACUG [hsa-mir-6760]
Output line: label 0

Input line: Item CCUUUCCCCUCAGACCAAGG [hsa-mir-3131] with pull-down binding Z-score of 0.04 or above?
Output line: label 0

Input line: Say whether CAAGUAAAAGGAAUUUUCAUUUUCCAGCCCCUAAUUG [hsa-mir-6739] shows pull-down binding Z-score of 0.04 or more.
Output line: label 0

Input line: Does pull-down binding Z-score meet or surpass 0.04 for CCUGUAUGUCUCCCCGCAGCACCGUCAUCGU [hsa-mir-6774] ?
Output line: label 1

Input line: Record `UAGAGGUACAACAGUACUUUUA` ; criterion: pull-down binding Z-score no lower than 0.04. Met?
Output line: label 0

Input line: Does the reported pull-down binding Z-score for UACCAGCUGUACUCAACUCAAUUGAGUACAGACACUGGUG [DMSMaPseq_invitro_SARS-CoV-2_Motif_468] fall at or above the 0.04 mark?
Output line: label 0

Input line: Determine whether measured pull-down binding Z-score meets or exceeds 0.04 for ACGUCUGGCCGCGUGCGCAUGU [hsa-mir-3175]
Output line: label 0

Input line: hey, is pull-down binding Z-score for this one >= 0.04? CAUUACUAAACUCAGUAAUG [hsa-mir-451b]
Output line: label 0

Input line: Entry AUUUUCACUUAAU [hsa-mir-302f] : is its pull-down binding Z-score no less than 0.04?
Output line: label 0

Input line: Could you tell me if the measured pull-down binding Z-score of UGAAGGUCACCAUGUUCUCCUUG [hsa-mir-3187] reaches 0.04 or more?
Output line: label 1

Input line: Determine whether measured pull-down binding Z-score meets or exceeds 0.04 for AUGAGAAAUUGGUUUCAA [hsa-mir-8063]
Output line: label 0

Input line: pull-down binding Z-score >= 0.04 for `AAACGAACUAAAUAUUAUAUUAGUUUUUCUGUUU` ?
Output line: label 0

Input line: For this sequence, is measured pull-down binding Z-score 0.04 or higher? GCGCUGCCAGAAACUGGCUAGCGC [bulge-U]
Output line: label 1

Input line: Quick check: does `CCGAAAUUAUGUCUUUACUGGUUAUCGUGUAACUAAAAACAGUAAAGUACAAAUAGG` have pull-down binding Z-score greater than or equal to 0.04?
Output line: label 0

Input line: // inclusive: pull-down binding Z-score at least 0.04? input: GGCCGGUCAGGCA [hsa-mir-4689]
Output line: label 1

Input line: Given the entry `GUUUACAACAGUAGAC` , answer whether its pull-down binding Z-score meets or surpasses 0.04.
Output line: label 1

Input line: Exam item: decide whether the reported pull-down binding Z-score for AGUGAGUACACUGGUAAUUACCAGUGUGGUCACU [SHAPE_invivo_SARS-CoV-2_Motif_119] is at least 0.04.
Output line: label 0

Input line: Exam item: decide whether the reported pull-down binding Z-score for GCUGUUGGUCGGGUUGUGACAUUGCCCGCUGUGGAGAUAACUGC [hsa-let-7i] is at least 0.04.
Output line: label 0

Input line: Textbook exercise: given the entry GUGUCCUGAAAUUCACAGGACUG [hsa-mir-4700] , state whether its pull-down binding Z-score is greater than or equal to 0.04.
Output line: label 1

Input line: Is pull-down binding Z-score for ACUCCUAGGUCACGGAAGU [hsa-mir-6838] at or above 0.04?
Output line: label 0

Input line: pull-down binding Z-score >= 0.04 for UUGAGGAGAGCACCACAGUGGUCAUCACACAG [hsa-mir-622] ?
Output line: label 1

Input line: pull-down binding Z-score >= 0.04 for GGAGACCCUAUACAUACCUGUUUCC [hsa-mir-5581] ?
Output line: label 0

Input line: Tell me whether pull-down binding Z-score is at least 0.04 here: UUGUGUCCAUCAUGCAACAA [hsa-mir-802]
Output line: label 0

Input line: Is pull-down binding Z-score at least 0.04? Consider `GAGUUACACAGAAUGUUCUCUAUGAGAACCAAAAAUUGAUUGCCAACCAAUUUAAUAGUGCUAUUGGCAAAAUUCAAGACUC`
Output line: label 0

Input line: // inclusive: pull-down binding Z-score at least 0.04? input: GCCGGAGCGGGC [hsa-mir-1181]
Output line: label 1

Input line: Determine whether this sequence has pull-down binding Z-score no lower than 0.04: AGGACACAGGCUGGCACUGAGGUCCC [hsa-mir-6887]
Output line: label 1

Input line: Is reported pull-down binding Z-score greater than or equal to 0.04 here: UGGACUGUGUACCAAUUUCCA [hsa-mir-194-1]
Output line: label 0

Input line: Quick check: does AGAAGCUAAAGUGUAGAUCAAACGCAUAAUGGCUGA [hsa-mir-4500] have pull-down binding Z-score greater than or equal to 0.04?
Output line: label 1

Input line: Form field: pull-down binding Z-score at least 0.04? Entry: ACAUUUUAUCUUACUAAUGAUGU [SHAPE_invivo_SARS-CoV-2_Motif_191]
Output line: label 0

Input line: Does the sequence UCCUCAGACCAGGUGGCUCCCGAGCCACCCCAGGCUGUAGG [hsa-mir-2392] have recorded pull-down binding Z-score that is 0.04 or more?
Output line: label 0

Input line: Quick check, pull-down binding Z-score >= 0.04? CUGCAGUGAGCGAUCGGUGCUCUGGGG [hsa-mir-503]
Output line: label 1

Input line: State whether the measured pull-down binding Z-score reaches 0.04, counting equality as reaching it, for GGACGUCACCACCAUGGCC [hsa-mir-650]
Output line: label 1

Input line: Does UAGAAUAGACGGUGACAUGGUACCACAUAUAUCACGUCAACGUCUUACUA [SHAPE_invivo_SARS-CoV-2_Motif_261] have a reported pull-down binding Z-score of at least 0.04?
Output line: label 0

Input line: Threshold query (pull-down binding Z-score >= 0.04) on GCACUAUUGCCUUUGGAGGCUGUGUGU [SHAPE_invivo_SARS-CoV-2_Motif_29]
Output line: label 1

Input line: Check if pull-down binding Z-score >= 0.04 (inclusive). Item: ACCAAAACACUCAUCGCGG [hsa-mir-1260a]
Output line: label 0

Input line: Evaluate UUUGCCGUUAAAAGUAAUGGCA [hsa-mir-548a-2] : pull-down binding Z-score at minimum 0.04?
Output line: label 0

Input line: Could you please find out whether GACAUCUGGGCCAACUCUGAUCUC [hsa-mir-6515] has pull-down binding Z-score that meets 0.04 or exceeds it?
Output line: label 0

Input line: Reported pull-down binding Z-score reaches at least 0.04 for GCUGCCAGGAAAUCCCUAUUUCAUAUAAGAGGGGGCUGGCUGGUUGC [hsa-mir-448] ?
Output line: label 1

Input line: Dear colleague, could you confirm whether GGAGACGGGUCUUUCUC [hsa-mir-1208] has pull-down binding Z-score at or above 0.04?
Output line: label 1

Input line: // inclusive: pull-down binding Z-score at least 0.04? input: GAGCCUGUCACAUCUCCAGACUC [hsa-mir-3925]
Output line: label 0

Input line: Does pull-down binding Z-score meet or surpass 0.04 for CUUUCUGUUGUCUGAAAGAAAAGAAAG [hsa-mir-520c_520b_519c_519b] ?
Output line: label 1

Input line: Does the sequence `CUCUUGUAAUGUAAACAGAUUUAAUGUUGCUAUUACCAGAG` have recorded pull-down binding Z-score that is 0.04 or more?
Output line: label 1

----------
I'd appreciate it if you could supply pull-down binding Z-score values for the items below.
- Tested on: TO-3-N3-2 (biotin conjugate)
- testSummary: pull-down binding Z-score (relative to library population); higher = stronger binding
- assaySetup: RNA library: Library-2
Quick one: just the number, no unit, thanks!

Input line: Endpoint output: pull-down binding Z-score of UCCUGAUGGUCCCCUCCCCAGGG [hsa-mir-185] . Value?
Output line: -0.187

Input line: For UCACUGUGAACAGUCUCAGUCAGUGA [hsa-mir-183] , what is its reported pull-down binding Z-score?
Output line: -0.331

Input line: Which pull-down binding Z-score reading was recorded for the sequence UAAUAGCAAUCCUUAAAUGCCAUUA [hsa-mir-4477b] ?
Output line: -0.0844

Input line: Which pull-down binding Z-score value belongs to `GUUGUCUUGAAAACUGGUGAUUUACAACCAUUAGAACAACCUACUAGUGAAGCUGUUGAAGCUCCAUUGGUUGGUACACCAGUUUGUAUUAAC` ?
Output line: -0.367

Input line: Request the reported pull-down binding Z-score associated with GACACUUUCACUAUAUAUAGUGGC [hsa-mir-3156-3]
Output line: -0.0836

Input line: Please look up its pull-down binding Z-score: GCUGACACUACUGAUGCUGUCCGUGAUCCACAGACACUUGAGAUUCUUGACAUUACACCAUGUUCUUUUGGUGGUGUCAGU [SHAPE_invivo_SARS-CoV-2_Multi_58_ComplexLevel_1]
Output line: -0.3

Input line: Suppose we examine the sequence GGUGGGUGCC [hsa-mir-1268b] ; what pull-down binding Z-score value has been reported?
Output line: -0.32

Input line: Suppose we examine the sequence `CCUGACUUAAAUGGUGAUGUGGUGGCUAUUGAUUAUAAACACUACACACCCUCUUUUAAGAAAGG` ; what pull-down binding Z-score value has been reported?
Output line: 0.00798

Input line: # input sequence: `AUAAAAUAGAAGAAUUAUUCUAUUCUUAU` ; wanted: its pull-down binding Z-score
Output line: -0.288
